target-desc: Ephrin type-B receptor 4 (Homo sapiens)
assay-procedure: blockers of EphB4 ligand binding – biochemical, TNYL-RAW peptide probe, fluorescence polarization, primary screen (AID 720);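 note: 0% = DMSO wells and 100% = excess unlabeled TNYL-RAW peptide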
cond: EphB4 LBD / TNYL-RAW-Alexa532 peptide, at 7 µM, stronger effect = higher value
Among all 97,000 compounds or so, about 140 (0.14%) were called active. For the sample, actives were picked, then their nearest neighbours and some compounds at random.
attribute-measured: inhibition (%)

| compound | target-desc | units-symbol | observed-value |
| --- | --- | --- | --- |
| S=C(NCCC1=CCCCC1)Nc1ccccc1 | Ephrin type-B receptor 4 (Homo sapiens) | % | 4.71 |
| O=S(=O)(N/N=C\c1cccn1-c1ccccc1)c1ccc2ccccc2c1 | Ephrin type-B receptor 4 (Homo sapiens) | % | -8.09 |
| COC(=O)/C(=C\Nc1ccccc1)NC(=O)c1ccc(Cl)cc1Cl | Ephrin type-B receptor 4 (Homo sapiens) | % | 2.49 |
| C=C(C)CNC(=S)/N=c1\scc(C)n1CC | Ephrin type-B receptor 4 (Homo sapiens) | % | -8.88 |
| CC1=NN(C(C)C)C(=O)C1 | Ephrin type-B receptor 4 (Homo sapiens) | % | -0.74 |
| COc1ccccc1NC(=O)C1CCCN(c2cc(C)nc3ncnn23)C1 (stereo unspecified) | Ephrin type-B receptor 4 (Homo sapiens) | % | -5.56 |
| Cc1cc2nc(C)n(CCCNC(=O)Nc3ccccc3)c2cc1C | Ephrin type-B receptor 4 (Homo sapiens) | % | -0.81 |
| C=CCOc1c2ccc(C(=O)N(CC)c3ccc(OC)cc3)cc2nn1C | Ephrin type-B receptor 4 (Homo sapiens) | % | 0.66 |
| COC(=O)c1ccc(CSc2ccc3nnc(-c4ccccc4)n3n2)o1 | Ephrin type-B receptor 4 (Homo sapiens) | % | -1.52 |
| CS(=O)(=O)N1CCN(c2cccc(Cl)n2)CC1 | Ephrin type-B receptor 4 (Homo sapiens) | % | -3.22 |
| CCOC(=O)c1cnc(SCC(=O)Nc2cccc(OC)c2)nc1N | Ephrin type-B receptor 4 (Homo sapiens) | % | 9.83 |
